- tested-target: ϕMalE-NapAsp^His K10Q (E. coli)
- test-name: ITC
pKd: −log10 of the molar value.

binder: NapD^His (natural protein) MHTNWQVCSLVVQAKSERISDISTQLNAFPGCEVAVSDAPSGQLIVVVEAEDSETLIQTIESVRNVEGVLAVSLVYHQQEEQGEETP
pKd: 5.89
